System: TE-5;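 also: inhibition of cell growth, read out by a cell viability assay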
Experiment: cells
Format: functional, cell-based, Homo sapiens
Conditions: Homo sapiens, TE-5
Description: SANGER: Inhibition of human TE-5 cell growth in a cell viability assay.
# reported IC50; entries follow
Report only the number, with the unit µM understood.

INPUT: What value of IC50 has been recorded for this entry: Nc1ccn([C@@H]2O[C@H](CO)[C@@H](O)[C@@H]2O)c(=O)n1 [CYTARABINE]
OUTPUT: 0.381

// next item, IC50 requested
INPUT: What value of IC50 has been recorded for this entry: CCC(=O)N1CCN(c2ccc(-n3c(=O)ccc4cnc5ccc(-c6cnc7ccccc7c6)cc5c43)cc2C(F)(F)F)CC1 [TORIN1]
OUTPUT: 0.0385

====

System: UMUC3;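 also: growth inhibition of human UM-UC-3 cells, read out with a cell viability assay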
Assay: cells
Assay type: functional, cell-based, Homo sapiens
Conditions: Homo sapiens, UMUC3
Description: SANGER: Inhibition of human UM-UC-3 cell growth in a cell viability assay.
pIC50: −log10 of the molar value.
Outcome label depends on pIC50 relative to 6: at/above gives yes, below gives no.

INPUT: In plain terms: is recorded pIC50 at least 6 for `CCC1=C[C@@H]2CN(C1)Cc1c([nH]c3ccccc13)[C@@](C(=O)OC)(c1cc3c(cc1OC)N(C)[C@H]1[C@@](O)(C(=O)OC)[C@H](OC(C)=O)[C@]4(CC)C=CCN5CC[C@]31[C@@H]54)C2` ?
OUTPUT: yes

New cases:
INPUT: In plain terms: is recorded pIC50 at least 6 for `COC(=O)CNC(=O)C(=O)OC` ?
OUTPUT: no

INPUT: In plain terms: is recorded pIC50 at least 6 for `CCOc1nc(NC(=O)Cc2cc(OC)ccc2OC)cc(N)c1C#N` ?
OUTPUT: no

INPUT: In plain terms: is recorded pIC50 at least 6 for `Nc1ccn([C@@H]2O[C@H](CO)[C@@H](O)[C@@H]2O)c(=O)n1` ?
OUTPUT: yes

INPUT: In plain terms: is recorded pIC50 at least 6 for `O=C1N=C(NCc2cccs2)S/C1=C\c1ccc2ncccc2c1` ?
OUTPUT: no

INPUT: In plain terms: is recorded pIC50 at least 6 for `Cc1cnc(-c2cnc(NCCNc3ccc(C#N)cn3)nc2-c2ccc(Cl)cc2Cl)[nH]1` ?
OUTPUT: no

====

Tested on: NCI-H2452
Assay: cells
Format: functional, cell-based, Homo sapiens
Conditions: Homo sapiens, NCI-H2452
Description: SANGER: Inhibition of human NCI-H2452 cell growth in a cell viability assay.
pIC50: −log10 of the molar value.
parameter: pIC50

INPUT: What value of pIC50 has been recorded for this entry: O=C(NOCC1CC1)c1ccc(F)c(F)c1Nc1ccc(I)cc1Cl [CI-1040]
OUTPUT: < 5.00

INPUT: What value of pIC50 has been recorded for this entry: CC(=O)O[C@@]12CO[C@@H]1C[C@H](O)[C@@]1(C)C(=O)[C@H](O)C3=C(C)[C@@H](OC(=O)[C@H](O)[C@@H](NC(=O)OC(C)(C)C)c4ccccc4)C[C@@](O)([C@@H](OC(=O)c4ccccc4)[C@H]21)C3(C)C [DOCETAXEL]
OUTPUT: 8.66

INPUT: What value of pIC50 has been recorded for this entry: Cc1ccc(Nc2nccc(N(C)c3ccc4c(C)n(C)nc4c3)n2)cc1S(N)(=O)=O [PAZOPANIB]
OUTPUT: < 5.10

INPUT: What value of pIC50 has been recorded for this entry: CCC1=C[C@@H]2CN(C1)Cc1c([nH]c3ccccc13)[C@@](C(=O)OC)(c1cc3c(cc1OC)N(C)[C@H]1[C@@](O)(C(=O)OC)[C@H](OC(C)=O)[C@]4(CC)C=CCN5CC[C@]31[C@@H]54)C2 [VINORELBINE]
OUTPUT: < 7.19

INPUT: What value of pIC50 has been recorded for this entry: `O=C1N=C(NCc2cccs2)S/C1=C\c1ccc2ncccc2c1`
OUTPUT: < 5.30

// next item, pIC50 requested
INPUT: What value of pIC50 has been recorded for this entry: CN(c1ncccc1CNc1nc(Nc2ccc3c(c2)CC(=O)N3)ncc1C(F)(F)F)S(C)(=O)=O [PF-00562271]
OUTPUT: < 5.59

Where do these numbers come from? They come from ChEMBL document CHEMBL1201861.
